MEASUREMENT_DESCRIPTION: chemical genetic growth profiling, strain panel (AID 1159580);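 note: tested at 20 µM; growth read once vehicle control cultures reached saturation at 30 °C; 1 = growth at the plate median or of vehicle wells; lower values mean less growth of the strain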
COND: S. cerevisiae deletion strains, growth OD, locus YMR125W, strain sto1, stronger effect = lower value
About 2,000 (36%) of roughly 5,500 compounds were called active. Not shown: some 18% with an inconclusive outcome. This is one part of the list.
Quick list: normalized growth per entry.
Give the figure only, with no unit attached.

INSERT INTO results (compound, measurement) VALUES
  ('NC(=O)c1ncn([C@@H]2O[C@H](CO)[C@@H](O)[C@H]2O)n1', 0.991),
  ('O=C(OC1Cc2c(O)cc(O)cc2OC1c1cc(=O)c(O)c2c(O)c(O)cc(C3Oc4cc(O)cc(O)c4CC3O)c2c1)c1cc(O)c(O)c(O)c1 (stereo unspecified)', 1.03),
  ('CC(CC(O)C1OC1(C)C)[C@@H]1CCC2(C)C3=CCC4C(C)(C)C(=O)CCC4(C)C3CC[C@@]12C (stereo partly specified)', 1),
  ('COc1c2ccoc2cc2oc(=O)ccc12', 1.03),
  ('CCC(c1ccc(O)cc1)C(CC)c1ccc(O)cc1 (stereo unspecified)', 1.01);

The reported value for CCC(N)C(O)c1ccc(O)c(O)c1 (stereo unspecified) in terms of normalized growth is 0.964

For record COc1cc2occc2c2oc(=O)ccc12 the listed normalized growth is 1.02

Notebook: O=c1ccc2c(O)c3ccoc3cc2o1 , normalized growth read as 0.983

Sample CC/C(=C(/CC)c1ccc(O)cc1)c1ccc(O)cc1 ; normalized growth observed: 1.09

For record O=C(Cc1cccs1)NC1C(=O)N2C(C(=O)[O-])=C(C[n+]3ccccc3)CSC12 (stereo unspecified) the listed normalized growth is 0.983

Briefly, normalized growth measured for COc1cc(OC)c2ccc(=O)oc2c1 : 0.993
